B1: MLL5 (parent)
chain: HDDGYMICCDKCSVWQHIDCMGID

variants of: B1; assay: protein stability index of a GFP-peptide fusion (GPS, HEK-293T) (PSI 1-6); higher = more stable; conditions: c terminus: a fixed tail appended;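 note: lentivirally expressed fusions sorted by FACS into six bins by GFP to DsRed ratio, PSI derived from sequencing read proportions per bin multiplied by bin number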
This section presents variants with their documented protein stability index values.
Give the value as a plain number.

[
  {
    "sequence_content": "HDDGYMICCDKCSVWQHIDPMGID [C20P]",
    "measured_property": "protein stability index",
    "result_number": 2.31
  },
  {
    "sequence_content": "HDDGYMICCDKCSVWQHIDRMGID [C20R]",
    "measured_property": "protein stability index",
    "result_number": 1.97
  },
  {
    "sequence_content": "HDDGYMICCDKCDVWQHIDCMGID [S13D]",
    "measured_property": "protein stability index",
    "result_number": 2.18
  },
  {
    "sequence_content": "HDDGYMICCDKCSVWQHIDCMEID [G22E]",
    "measured_property": "protein stability index",
    "result_number": 2.4
  },
  {
    "sequence_content": "HDDGYMICCDKASVWQHIDCMGID [C12A]",
    "measured_property": "protein stability index",
    "result_number": 2.71
  },
  {
    "sequence_content": "HDDGYGICCDKCSVWQHIDCMGID [M6G]",
    "measured_property": "protein stability index",
    "result_number": 2.4
  }
]

The variant listed as HDDGYMKCCDKCSVWQHIDCMGID [I7K] has a reported protein stability index of 3.45

The variant listed as HRDGYMICCDKCSVWQHIDCMGID [D2R] has a reported protein stability index of 2.02

The variant listed as HDDGYMICCDKCSVWVHIDCMGID [Q16V] has a reported protein stability index of 2.82

The variant listed as HDDGYMICCDKCSVWQAIDCMGID [H17A] has a reported protein stability index of 2.16

The variant listed as HDDGFMICCDKCSVWQHIDCMGID [Y5F] has a reported protein stability index of 1.74

The variant listed as HDDGYMICCDKCSVWLHIDCMGID [Q16L] has a reported protein stability index of 2.75
